- Test system: A2C12
- Protocol Details: Cell cycle analysis by flow cytometry
- Format: cell-based, mouse
- Measurement Parameters: IC50 concentration, 96 h
Each entry below carries its recorded Cells in G2 phase.
State the answer as a number, implicitly in %.

In the examples that follow, each entry is paired with its recorded Cells in G2 phase.
CCCCNc1nc(SCC)nc2c1cnn2CC(Cl)c1ccccc1 (stereo not shown); 11.3
CSc1nc(NCc2ccccc2)c2cnn(CC(Cl)c3ccc(F)cc3)c2n1 (stereo not shown); 10.4
Cc1nc(Nc2cccc(Cl)c2)c2cnn(CC(Cl)c3ccccc3)c2n1 (stereo not shown); 13.1
CSc1nc(NCCc2ccccc2)c2cnn(C=Cc3ccccc3)c2n1; 9.8
Cc1nc(Nc2cccc(F)c2)c2cnn(CC(Cl)c3ccccc3)c2n1 (stereo not shown); 13.6

Q: Endpoint output: Cells in G2 phase of CSc1nc(NCc2ccccc2)c2cnn(CC(Cl)c3ccccc3)c2n1 (stereo not shown) . Value?
A: 9.7

Q: Endpoint output: Cells in G2 phase of Clc1cccc(Nc2nc(SC3CCCC3)nc3c2cnn3CC(Cl)c2ccccc2)c1 (stereo not shown) . Value?
A: 12.6

Q: Endpoint output: Cells in G2 phase of CSc1nc(Nc2cccc(F)c2)c2cnn(CC(Cl)c3ccc(F)cc3)c2n1 (stereo not shown) . Value?
A: 14.6

Q: Endpoint output: Cells in G2 phase of Fc1ccc(C(Cl)Cn2ncc3c(Nc4cccc(Cl)c4)ncnc32)cc1 (stereo not shown) . Value?
A: 13.8

Q: Endpoint output: Cells in G2 phase of CSc1nc(NCc2ccccc2)c2cnn(CC(Cl)c3ccc(Cl)cc3)c2n1 (stereo not shown) . Value?
A: 10.1

###

- Test system: CaCo2
- Protocol Details: MTS cell viability assay
- Type: cell-based, human
- Measurement Parameters: 24 h, read-out: Calculated IC50 after single treatment for 24 h
- Description: Three human and eleven murine cancer cell lines were used. […] Cell culture viability was monitored by CellTiter96® AQueous One Solution Cell Proliferation Assay (Promega GmbH, Mannheim, Germany). […] Absorbance at 490 nm was assayed with a Victor3 Wallac 1420 Multilabel counter (PerkinElmer, Waltham, MA, USA).
Each entry below carries its recorded IC50.
State the answer as a number, implicitly in µM.

In the examples that follow, each entry is paired with its recorded IC50.
CSc1nc(NCc2ccccc2)c2cnn(CC(Cl)c3ccc(Cl)cc3)c2n1 (stereo not shown); 82.1
CSc1nc(NCCc2ccccc2)c2cnn(CC(Cl)c3ccc(F)cc3)c2n1 (stereo not shown); 44.7
Fc1ccc(C(Cl)Cn2ncc3c(Nc4cccc(Cl)c4)ncnc32)cc1 (stereo not shown); 40.8

Q: Endpoint output: IC50 of CSc1nc(NCc2ccccc2)c2cnn(CC(Cl)c3ccccc3)c2n1 (stereo not shown) . Value?
A: 58.2

Q: Endpoint output: IC50 of CSc1nc(NCc2ccccc2)c2cnn(CC(Br)c3ccccc3)c2n1 (stereo not shown) . Value?
A: 72.9

###

- System: GammaD12
- Protocol Details: MTS cell viability assay
- Type: cell-based, mouse
- Measurement Parameters: Mus musculus, 96 h, read-out: IC50 (MTS) after treatment for 96 h
Measured Endpoint: IC50

Q: Endpoint output: IC50 of Cc1nc(Nc2ncc(C(=O)Nc3c(C)cccc3Cl)s2)cc(N2CCN(CCO)CC2)n1 [Dasatinib, reference compound] . Value?
A: 800 nM

###

- Tested on: GammaD12
- Protocol Details: Cell cycle analysis by flow cytometry
- Format: cell-based, mouse
- Measurement Parameters: IC50 concentration, 96 h
// NO strictly below 40% in Cells in G1 phase; YES otherwise

// below: answered compounds
CSc1nc(NCc2ccccc2)c2cnn(CC(Cl)c3ccc(Cl)cc3)c2n1 (stereo not drawn) [Si70]; YES
Cc1nc(Nc2cccc(Cl)c2)c2cnn(CC(Cl)c3ccccc3)c2n1 (stereo not drawn) [Si167]; YES
Fc1ccccc1CNc1ncnc2c1cnn2CC(Cl)c1ccc(Br)cc1 (stereo not drawn) [Si162]; NO

Q: In plain terms: is recorded Cells in G1 phase at least 40% for CCCCNc1nc(SCC)nc2c1cnn2CC(Cl)c1ccccc1 (stereo not drawn) [Si20] ?
A: NO

Q: In plain terms: is recorded Cells in G1 phase at least 40% for CSc1nc(NCc2ccccc2)c2cnn(CC(Br)c3ccccc3)c2n1 (stereo not drawn) [Si81] ?
A: NO

Q: In plain terms: is recorded Cells in G1 phase at least 40% for CSc1nc(NCc2ccccc2)c2cnn(CC(Cl)c3ccccc3)c2n1 (stereo not drawn) [Si34] ?
A: NO

Q: In plain terms: is recorded Cells in G1 phase at least 40% for Clc1cccc(Nc2nc(SC3CCCC3)nc3c2cnn3CC(Cl)c2ccccc2)c1 (stereo not drawn) [Si135] ?
A: NO

Q: In plain terms: is recorded Cells in G1 phase at least 40% for CSc1nc(NCCc2ccc(Cl)cc2)c2cnn(CC(Cl)c3ccccc3)c2n1 (stereo not drawn) [Si57] ?
A: NO

Q: In plain terms: is recorded Cells in G1 phase at least 40% for Fc1ccc(C(Cl)Cn2ncc3c(Nc4cccc(Cl)c4)ncnc32)cc1 (stereo not drawn) [Si104] ?
A: NO

Q: In plain terms: is recorded Cells in G1 phase at least 40% for CSc1nc(NCCc2ccccc2)c2cnn(C=Cc3ccccc3)c2n1 [Si40] ?
A: NO

Q: In plain terms: is recorded Cells in G1 phase at least 40% for CSc1nc(NCc2ccccc2)c2cnn(CC(Cl)c3ccc(F)cc3)c2n1 (stereo not drawn) [Si65] ?
A: NO

Q: In plain terms: is recorded Cells in G1 phase at least 40% for CSc1nc(NCCc2ccccc2)c2cnn(CC(Cl)c3ccc(F)cc3)c2n1 (stereo not drawn) [Si66] ?
A: NO

Q: In plain terms: is recorded Cells in G1 phase at least 40% for CC(C)Sc1nc(NCCc2ccccc2)c2cnn(CC(Cl)c3ccccc3)c2n1 (stereo not drawn) [Si142] ?
A: NO

Provenance of the data: paper PMC2994747
